Experiment: Plasma pharmacokinetics of CGA and metabolites after 400 mg green coffee extract, ten volunteers
Assay type: in vivo, human
Settings: both sexes, human, plasma, po, 400 mg, 400 mg green coffee extract oral, mean ± SD, n = 10
ENDPOINT: Cmax (nM)

compound="O=C(C=Cc1ccc(O)c(O)c1)OC1C(O)CC(O)(C(=O)O)CC1O (stereo not shown)" reading=1400

I = O=C(C=Cc1ccc(O)c(O)c1)OC1CC(O)(C(=O)O)CC(O)C1OC(=O)C=Cc1ccc(O)c(O)c1 (stereo not shown)
II = O=C(C=Cc1ccc(O)c(O)c1)OC1CC(O)(C(=O)O)CC(OC(=O)C=Cc2ccc(O)c(O)c2)C1O (stereo not shown)
III = COc1cc(/C=C/C(=O)O)ccc1O
Arrange the 3 entries by Cmax so the values rise. Could you list the labels in the order requested?
III, I, II
